molecular target: AgOAR45B (Anopheles gambiae, UniProt F5HJT6); settings: read-out: IC 50 (antagonist); AgOAR45B, in the presence of 1 μM octopamine
Sequence (F5HJT6 entry or part of it): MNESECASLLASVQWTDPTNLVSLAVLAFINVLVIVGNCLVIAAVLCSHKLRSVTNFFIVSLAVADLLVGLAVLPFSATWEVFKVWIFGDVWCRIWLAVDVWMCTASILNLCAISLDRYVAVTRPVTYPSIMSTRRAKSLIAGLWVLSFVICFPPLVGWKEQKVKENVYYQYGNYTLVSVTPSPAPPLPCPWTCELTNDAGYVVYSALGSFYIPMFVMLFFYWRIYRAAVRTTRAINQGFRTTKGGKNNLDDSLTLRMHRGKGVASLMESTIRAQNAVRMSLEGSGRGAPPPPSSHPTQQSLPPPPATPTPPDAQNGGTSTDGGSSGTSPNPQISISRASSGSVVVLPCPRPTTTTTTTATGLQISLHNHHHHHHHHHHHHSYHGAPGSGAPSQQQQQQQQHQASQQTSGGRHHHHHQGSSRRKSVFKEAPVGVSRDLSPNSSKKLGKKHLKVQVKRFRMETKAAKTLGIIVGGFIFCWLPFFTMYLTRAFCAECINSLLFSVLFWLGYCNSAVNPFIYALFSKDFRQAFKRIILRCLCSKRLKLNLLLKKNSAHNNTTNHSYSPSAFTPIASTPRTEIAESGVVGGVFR
Below, each of the compounds is paired with its reported pIC50 value.
// pIC50 is dimensionless: -log10 of concentration (M)

Request: What value of measured pIC50 is listed for CC(CN1c2ccccc2Sc2ccccc21)N(C)C (stereo not drawn) ?
Result: 5.70

Request: I am curious: what pIC50 value has been reported for CN(C)CCCN1c2ccccc2Sc2ccc(Cl)cc21 ?
Result: 5.00
